Just for reference, PubChem BioAssay (NCI) is where these values come from.

Test system: MCF7 breast
Test: NCI-60 one-dose screen, 48 h
Conditions: 10 µM
About 83,000 compounds went through this panel and 20% of them were active in at least one assay; those are over-represented in the sample as a whole. The source made the active and inactive calls. How the source made its calls: active means growth percent below 10; inactive means the rest. Where a SMILES comes first, the peptide text is derived from it. The star is where a group is joined. Trt = c1ccc(C(c2ccccc2)(c2ccccc2)*)cc1; Cbz = O=C(OCc1ccccc1)*
Labels: 1 (active), -1 (inactive)

{"compound": "CCC(c1cccc(O)c1)C(CC)c1cccc(O)c1 (stereo not drawn)", "category-label": -1}
{"compound": "CN(C)C(=O)c1ccc(SC(=S)NCc2ccccc2)cc1", "category-label": -1}
{"compound": "COc1ccc(-c2cscc2N)cc1", "category-label": -1}
{"compound": "CN(C)C(=O)SC1=C(c2c(Cl)cccc2Cl)C(=O)c2ccccc21", "category-label": 1}
{"compound": "CCCCCCC(C)c1ccccc1O (stereo not drawn) (tested in a mixture with another compound)", "category-label": -1}
{"compound": "COc1ccc(N=N/N=c2\\sc3cc(OC)ccc3n2C)cc1", "category-label": -1}
{"compound": "COC(=O)C(CSC(c1ccccc1)(c1ccccc1)c1ccccc1)NC(=O)C(CC(N)=O)NC(=O)OCc1ccccc1 (stereo not drawn) (Cbz-Asn-Cys(Trt)-OMe; configuration not given here)", "category-label": -1}
{"compound": "CC(C)c1ccc2nc3ccc(C(=O)NCCN4CCN(c5ccccc5)CC4)cn3c(=O)c2c1", "category-label": -1}
{"compound": "CCOC(=O)c1c(C)[nH]c(CO)c1C", "category-label": -1}
{"compound": "Cn1c2ccccc2c2nnc(N/N=C/c3ccccn3)nc21", "category-label": -1}
{"compound": "C/C=C1\\SC(=S)NC1=O", "category-label": -1}
{"compound": "O=C(CC1(O)C(=O)Nc2c(Cl)ccc(Cl)c21)c1ccc(Cl)cc1Cl (stereo not drawn)", "category-label": -1}
{"compound": "C1=C(c2ccccc2)C(c2ccc(OCCN3CCCCC3)cc2)Oc2ccccc21 (stereo not drawn)", "category-label": 1}
{"compound": "CC(=Nc1ccc(N(C)C)cc1)c1ccccc1", "category-label": -1}
{"compound": "CCC(=O)Sc1ccccc1C(=O)Nc1ccc(Cl)cc1", "category-label": -1}
{"compound": "CC(=O)ON=C1C=CC(=C(C#N)c2ccccc2)C=C1", "category-label": -1}
{"compound": "COc1cc(/C=C(/C)C[N+](=O)[O-])ccc1O", "category-label": -1}
{"compound": "N#CSCc1ccc(CSC#N)c(Cl)c1", "category-label": -1}
{"compound": "O=C1c2ccccc2C(=O)c2sc(Nc3cccc(Cl)c3)nc21", "category-label": 1}
{"compound": "O=C1N[C@H]2[C@H](CS[C@H]2CCCCC(=O)N(CCP(c2ccccc2)c2ccccc2)CCP(c2ccccc2)c2ccccc2)N1", "category-label": -1}
{"compound": "COc1ccccc1/C=C\\C(=O)c1ccccc1", "category-label": 1}
{"compound": "O=C(O)c1ccc2c3c(ncnc13)-c1ccccc1C2=O", "category-label": -1}
{"compound": "CCCCCCCCCCCCCCNCc1ccccc1", "category-label": -1}
{"compound": "NC(=S)N/N=C/c1ccc(Cl)s1", "category-label": -1}
{"compound": "Cc1c2ccccc2c(C)c2c1ccc1ccccc12", "category-label": -1}
{"compound": "O=C1C=CC(=O)N1C1c2ccccc2-c2ccccc21", "category-label": -1}
{"compound": "O=C1OCc2cccc3cccc1c23", "category-label": -1}
{"compound": "CCN1/C(=C\\c2cc[n+](CC)c3ccccc23)C=Cc2ccccc21", "category-label": 1}
{"compound": "COc1ccc2nc3cc(Cl)ccc3c(NCCNc3c4ccc(Cl)cc4nc4ccc(OC)cc34)c2c1", "category-label": 1}
{"compound": "O=C1C2=C(Nc3cc([N+](=O)[O-])ccc3N2)OC1c1c2ccccc2cc2ccccc12 (stereo not drawn)", "category-label": -1}
{"compound": "O=C1NC(=O)/C(=C/C=C/c2ccccc2)S1", "category-label": -1}
{"compound": "Oc1c(Br)c(Br)c(O)c(Br)c1Br", "category-label": -1}
{"compound": "Cc1ccnc(NC(c2ccccc2)c2ccc3cccnc3c2O)c1 (stereo not drawn)", "category-label": -1}
{"compound": "CC(C)(C)c1ccc(O)c(C2CCCCC2)c1", "category-label": -1}
{"compound": "CN(C)c1ccc(N=Nc2cccc3ccccc23)cc1", "category-label": -1}
{"compound": "CCC1OC(OC)C=CC1=O (stereo not drawn)", "category-label": -1}
{"compound": "C=CCOc1ccc(N=NC(C#N)C#N)cc1", "category-label": -1}
{"compound": "NC1=CC(=O)c2ccccc2C1=O", "category-label": -1}
{"compound": "CNc1ccc(N)cc1", "category-label": -1}
{"compound": "O=C(Nc1ccccc1)c1cc(Cl)ccc1O", "category-label": -1}
{"compound": "CN(C)CCOc1ccc2c(c1)C(=O)/C(=C\\c1ncc([N+](=O)[O-])n1C)C2", "category-label": 1}
{"compound": "CCOc1ccc(-c2nc3ccc(-c4nc5ccc(N6CCN(C)CC6)cc5[nH]4)cc3[nH]2)cc1", "category-label": 1}
{"compound": "NC(=O)/C=C/C(=O)c1c(Cl)cccc1Cl", "category-label": 1}
{"compound": "CCC(CC)COC(=O)c1ccc(O)c(O)c1", "category-label": -1}
{"compound": "Cc1ccc2nc(-[n+]3cc4ccccc4cc3C)ccc2c1", "category-label": -1}
{"compound": "Cn1c2c(c3ccccc31)CCN1C[C@@H]3CCCC[C@H]3C[C@@H]21", "category-label": -1}
{"compound": "OC(CNc1ccnc2cc(Cl)ccc12)CNc1ccnc2cc(Cl)ccc12", "category-label": -1}
{"compound": "CCN(CC)CC(C)(C)C(=O)/C=C/c1ccc(Cl)c(Cl)c1", "category-label": 1}
